Assay: Quantitative highthroughput screen to assess conditional lethalithy of NOMO1 cells grown in RPMI1640 with untreated serum (RPMI+s) (AID 1963876);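 further: 100% = DMSO wells and 0% = empty wells without cells; nearly all actives have a fitted effect of over 35% in size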
Settings: NOMO1 AML cells in RPMI+serum, CellTiter-Glo viability, 48 h; series mostly up to 45.8 µM
Method: Assay Provider: Jason Cantor Ph.D. Department of Biochemistry University of Wisconsin-Madison, Madison, WI, USA Chemical screening studies have identified drug sensitivities across hundreds of cancer cell lines but most putative therapeutics fail to translate. […] Sets of conditional anticancer compounds spanned phases of clinical development and included non-oncology drugs were assessed. […] 6; Detection; Luminescence, Viewlux PerkinElmer. […]
Records with an inconclusive call do not appear. The source made the active and inactive calls. The call rests on the fitted dose curve; in most records, active means well fitted cell-killing curve with a large enough effect; inconclusive means small, poorly fitted or top-dose-only effect; inactive means flat fitted curve, though single readings scatter.
# valid calls are 1.0 = active, 0.0 = inactive; nothing else

Some entries whose results are on file:
OC[C@H]1O[C@@H](n2cnc3c2NC=NC[C@@H]3O)C[C@H]1O	0.0
O=C(O)c1cccc(-c2noc(-c3ccccc3F)n2)c1	0.0
CC(=O)OCC(=O)[C@@]1(O)CC[C@H]2[C@@H]3CCC4=CC(=O)C=C[C@]4(C)[C@@H]3[C@@H](O)C[C@@]21C	0.0
Nc1ccc(S(=O)(=O)Nc2ncccn2)cc1	0.0
CC(C)C1CCC(C(=O)N[C@H](Cc2ccccc2)C(=O)O)CC1 (stereo not given in full)	0.0

Next compound, please.
Task: Kindly provide the recorded test outcome for the following compound: c1coc(CNc2ncnc3nc[nH]c23)c1
Output: 0.0
